Just for reference, patent US10047051B2 is where these values come from.

target: CFTR G551D/ΔF508 (Homo sapiens, UniProt P13569, G551D); assay: TECC assay, primary bronchial epithelial cells, CFTR G551D/ΔF508; details: primary bronchial epithelial cells heterozygous G551D/ΔF508, acute mode, increase in Isc after forskolin
Sequence (P13569 whole entry F508del/G551D): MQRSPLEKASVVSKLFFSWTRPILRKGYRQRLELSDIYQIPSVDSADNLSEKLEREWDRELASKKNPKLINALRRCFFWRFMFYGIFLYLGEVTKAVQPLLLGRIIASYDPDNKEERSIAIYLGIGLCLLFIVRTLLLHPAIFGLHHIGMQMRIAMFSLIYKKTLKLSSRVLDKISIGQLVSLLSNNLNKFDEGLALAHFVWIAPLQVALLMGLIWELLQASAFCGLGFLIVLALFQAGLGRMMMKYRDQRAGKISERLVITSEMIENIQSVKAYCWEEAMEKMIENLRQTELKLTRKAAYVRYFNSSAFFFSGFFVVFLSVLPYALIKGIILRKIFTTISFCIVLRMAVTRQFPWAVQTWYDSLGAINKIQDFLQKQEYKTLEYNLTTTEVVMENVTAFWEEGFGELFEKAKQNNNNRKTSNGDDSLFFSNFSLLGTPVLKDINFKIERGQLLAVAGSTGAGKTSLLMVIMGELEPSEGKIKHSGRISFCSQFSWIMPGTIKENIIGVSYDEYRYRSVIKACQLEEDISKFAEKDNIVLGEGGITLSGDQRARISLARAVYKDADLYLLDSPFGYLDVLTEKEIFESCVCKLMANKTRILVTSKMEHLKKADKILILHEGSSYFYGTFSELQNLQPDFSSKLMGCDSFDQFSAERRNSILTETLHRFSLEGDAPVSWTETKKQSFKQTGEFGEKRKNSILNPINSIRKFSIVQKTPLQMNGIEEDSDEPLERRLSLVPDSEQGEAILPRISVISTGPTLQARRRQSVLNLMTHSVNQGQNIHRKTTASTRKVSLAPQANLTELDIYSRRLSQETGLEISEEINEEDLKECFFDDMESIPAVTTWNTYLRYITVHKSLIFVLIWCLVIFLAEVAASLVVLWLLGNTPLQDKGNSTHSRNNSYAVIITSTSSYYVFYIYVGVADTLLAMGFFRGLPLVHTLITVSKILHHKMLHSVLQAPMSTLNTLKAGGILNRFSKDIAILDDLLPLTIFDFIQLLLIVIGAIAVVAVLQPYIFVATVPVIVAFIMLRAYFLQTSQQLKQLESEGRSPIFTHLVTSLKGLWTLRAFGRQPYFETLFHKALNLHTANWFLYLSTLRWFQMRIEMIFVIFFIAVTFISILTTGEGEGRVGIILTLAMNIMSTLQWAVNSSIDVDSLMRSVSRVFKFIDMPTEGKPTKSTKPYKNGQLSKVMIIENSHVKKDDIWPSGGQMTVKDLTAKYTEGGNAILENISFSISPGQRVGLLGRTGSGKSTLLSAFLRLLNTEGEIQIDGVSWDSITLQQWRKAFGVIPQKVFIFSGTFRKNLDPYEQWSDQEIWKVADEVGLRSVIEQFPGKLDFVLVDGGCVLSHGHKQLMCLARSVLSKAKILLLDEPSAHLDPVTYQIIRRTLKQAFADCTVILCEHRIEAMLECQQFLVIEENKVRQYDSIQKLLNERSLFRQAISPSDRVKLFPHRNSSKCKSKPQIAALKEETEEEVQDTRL
pEC50: −log10 of the molar value.
METRIC: pEC50

Worked set:
> print(dat)
                                   molecule  assay.value
1  Nc1cc(S(=O)(=O)c2ccccc2)cnc1C(=O)NC[C@@H](O)C(F)(F)F         5.84
2  Nc1cc(S(=O)(=O)N2CCC(C(F)(F)F)CC2)cnc1C(=O)NCC(O)C(F)(F)F (centres unmarked)         6.31
3  COC[C@H](O)CNC(=O)c1ncc(S(=O)(=O)c2ccc(C(F)(F)F)cc2F)cc1N         6.45

[A] Nc1cc(S(=O)(=O)c2ccc(OC(F)(F)F)cc2)cnc1C(=O)NC[C@@H](O)C(F)(F)F
[B] CC(C)OC[C@H](O)CNC(=O)c1ncc(S(=O)(=O)c2ccc(C(F)(F)F)cc2)cc1N
[C] CC(C)OCC(O)CNC(=O)c1ncc(S(=O)(=O)c2ccc(C(F)(F)F)cc2)cc1N (centres unmarked)
[D] COC[C@H](O)CNC(=O)c1ncc(S(=O)(=O)c2ccc(C(F)(F)F)cc2)cc1N
Highest pEC50 first, then in falling order down to the smallest. State the ranking by listing the labels in the requested order.
B, C, A, D
